STUDY TARGET: human recombinant enzyme (full length top1) (Homo sapiens, UniProt P11387)
Construct: the human recombinant enzyme (full length top1)
Sequence (P11387 1-765): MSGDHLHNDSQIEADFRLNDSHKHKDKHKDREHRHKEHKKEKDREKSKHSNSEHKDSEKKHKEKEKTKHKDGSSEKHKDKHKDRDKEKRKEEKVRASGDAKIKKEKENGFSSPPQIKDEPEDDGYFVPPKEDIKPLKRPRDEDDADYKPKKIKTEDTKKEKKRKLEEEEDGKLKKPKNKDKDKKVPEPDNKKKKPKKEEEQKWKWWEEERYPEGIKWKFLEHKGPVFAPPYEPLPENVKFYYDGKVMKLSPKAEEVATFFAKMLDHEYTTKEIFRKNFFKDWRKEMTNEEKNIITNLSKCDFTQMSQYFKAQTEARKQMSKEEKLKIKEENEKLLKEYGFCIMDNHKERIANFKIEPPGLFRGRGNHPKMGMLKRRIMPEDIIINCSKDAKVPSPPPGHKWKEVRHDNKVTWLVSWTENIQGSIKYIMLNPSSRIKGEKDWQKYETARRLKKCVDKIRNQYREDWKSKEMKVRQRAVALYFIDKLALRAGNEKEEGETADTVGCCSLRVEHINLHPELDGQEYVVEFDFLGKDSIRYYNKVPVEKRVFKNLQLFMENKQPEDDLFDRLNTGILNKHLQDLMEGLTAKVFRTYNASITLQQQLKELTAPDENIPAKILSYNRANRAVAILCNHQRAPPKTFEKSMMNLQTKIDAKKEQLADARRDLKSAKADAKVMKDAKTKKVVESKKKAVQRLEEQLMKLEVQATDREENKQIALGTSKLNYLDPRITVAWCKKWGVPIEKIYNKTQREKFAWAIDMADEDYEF
MEASUREMENT NOTES: Topoisomerase-I-dependent DNA rupture assay, DNA damage persistence
Format: biochemical
PROTOCOL CONDITIONS: Time 1 min after adding 0.6M NaCl; 30 min incubation with 10 μM drug
REPORTED METRIC: Persitence of DNA damage (%)
Please answer using the number first and the unit second.

Some compounds with recorded Persitence of DNA damage (%):
>  <COMPOUND>
CC[C@@]1(O)C(=O)OCc2c1cc1n(c2=O)Cc2cc3c(CN(C)C)c(O)ccc3nc2-1 [Topotecan]

>  <REPORTED METRIC>
Persitence of DNA damage (%)

>  <VALUE MEASURED>
65%

$$$$
>  <COMPOUND>
CC[C@@]1(O)C(=O)OCc2c1cc1n(c2=O)Cc2cc3ccccc3nc2-1 [Camptothecin]

>  <REPORTED METRIC>
Persitence of DNA damage (%)

>  <VALUE MEASURED>
58%

$$$$
>  <COMPOUND>
CC[C@@]1(O)C(=O)OCC2=C1C=C1c3nc4ccccc4cc3C3NN=C2N13 (stereo partly shown) [IDN 6132]

>  <REPORTED METRIC>
Persitence of DNA damage (%)

>  <VALUE MEASURED>
45%

$$$$

Exercise: Short answer please: Persitence of DNA damage (%), human recombinant enzyme (full length top1) (Homo sapiens, UniProt P11387), entry CCc1c2c(nc3ccc(O)cc13)-c1cc3c(c(=O)n1C2)COC(=O)[C@]3(O)CC [SN38, 10-hydroxy-7-ethylcamptothecin]
Key: 60%
